- target-under-test: T1, Mouse/Human chimeric Ang-2 with the human StuI-TfiI fragment (mouse/human chimera, UniProt O35608 19-496)
- T1 construct: also called Stu-Tfil 310-400
- T1 chain: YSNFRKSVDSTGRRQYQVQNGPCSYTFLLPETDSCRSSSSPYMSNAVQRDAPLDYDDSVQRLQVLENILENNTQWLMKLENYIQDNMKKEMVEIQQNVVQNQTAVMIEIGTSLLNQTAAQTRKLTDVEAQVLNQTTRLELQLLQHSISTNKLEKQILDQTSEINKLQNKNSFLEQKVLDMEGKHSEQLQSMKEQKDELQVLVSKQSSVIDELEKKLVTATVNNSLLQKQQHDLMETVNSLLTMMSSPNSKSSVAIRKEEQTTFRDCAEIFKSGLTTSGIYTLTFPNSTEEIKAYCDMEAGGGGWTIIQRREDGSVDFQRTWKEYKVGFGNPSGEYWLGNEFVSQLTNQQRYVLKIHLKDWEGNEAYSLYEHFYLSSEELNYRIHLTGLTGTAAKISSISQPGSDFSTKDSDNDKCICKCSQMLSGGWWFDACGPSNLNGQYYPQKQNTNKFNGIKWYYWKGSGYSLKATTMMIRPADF
- procedure-details: ELISA
value-kind: % of binding to human Ang-2 (%)
Reply numerically in %, unit not repeated.

Query: Recall and state the measured % of binding to human Ang-2 for mAb 5.56.1 (antibody, V domains shown, Human hybridoma IgG (XenoMouse); also called x5.56) VH: QVQLVESGGGVVQPGRSLRLSCAASGFTFSSYGMHWVRQAPGKGLEWVAVIWYDGSNKYYADSVKGRFTISRDNSKNTLYLQMNSLRAEDTAVYYCAREDNWNFYFDYWGQGTLVTVSS VL: DIQMTQSPSSLSASVGDRVTITCRASQGISYYLAWYQQKPGKVPKLLIYAASTLQSGVPSRFSGSGSGTDFTLTISSLQPEDVATYYCQKYNSAPFTFGPGTKVDIKR .
Response: 100

Query: Recall and state the measured % of binding to human Ang-2 for mAb 5.35.1 (antibody, V domains shown, Human hybridoma IgG (XenoMouse); also called x5.35) VH: EVQLVESGGGVVRPGGSLRLSCTTSGFTFDDYGMSWVRQAPGKGLEWVSGINWNGGSTVYADSVKGRFTISRDSAKNSLYLQMNSLRAEDTALYHCARNKQWLWYFDLWGRGTLVTVSS VL: EIVMTQSPATLSVSPGERATLSCRASQSVSSNLAWYQQKPGQAPRLLIYGASTRATGIPARFSGSGSGTEFTLTISSLQSEDFAVYYCEQYNNWPLTFGGGTKVEIKR .
Response: 100

Query: Recall and state the measured % of binding to human Ang-2 for mAb 3.3.2 (antibody, V domains shown, Human hybridoma IgG (XenoMouse); also called 3.3.1; x3.3) VH: EVQLVESGGGLVQPGGSLRLSCAVSGFTFSSYWMSWVRQAPGKGLEWVANIKQDGSEKYYVDSVKGRFTISRDNAKNSLYLQMNSLRAEDTAVYYCARDQGIAVAGPFDYWGQGTLVTVSS VL: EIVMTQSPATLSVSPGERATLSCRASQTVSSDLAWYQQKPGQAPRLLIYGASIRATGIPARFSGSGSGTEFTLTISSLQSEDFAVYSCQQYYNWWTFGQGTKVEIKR .
Response: 15

Query: Recall and state the measured % of binding to human Ang-2 for mAb 5.108.1 (antibody, V domains shown, Human hybridoma IgG (XenoMouse); also called x5.108) VH: QVQLVESGGGVVQPGRSLRLSCAASGFTFSSYGMHWVRQAPGKGLEWVAVIWYDGSNKYYADSVKGRFTISRDNSKNTLYLQMNSLRAEDTAMYYCARELALWGQGTLVTVSS VL: EIVMTQSPATLSVSPGERATLSCRASQSVSSYLAWYQQKPGQAPRLLIYGAFTRATGIPARFRGSGSGPEFTLTISSLQSEDFAVYYCQQYSHWWTFGQGTKVEIKR .
Response: 36

Query: Recall and state the measured % of binding to human Ang-2 for mAb 5.39.1 (antibody, V domains shown, Human hybridoma IgG (XenoMouse); also called x5.39) VH: QVQLVQSGAEVTKPGASVKVSCKASGYTFTAYHMYWVRQAPGQGLEWMGWINPNSGGTNYAQKFQGRVTMTRDTSISTAYMELSRLRSDDSPVYYCARDQGIAAAGPFDYWGQGTLVTVSS VL: EIVMTQSPATLSVSPGDRATLSCRASQSVSSNFAWYQQKPGQAPRLLIYGSSTRATGIPARFSGSGSGTEFTLTISSLQSEDFAVYYCQQYHYWWTFGQGTKVEFKR .
Response: 25

Query: Recall and state the measured % of binding to human Ang-2 for mAb 5.86.1 (antibody, V domains shown, Human hybridoma IgG (XenoMouse); also called x5.86) VH: QVQLVQSGAEVKKPGASVKVSCKASGYTFTGYHMYWVRQAPGQGLEWLGWINPNSGGTNYAQKFQGRVTMTRDTSISTAYMELSRLRSDDTAVYYCVRDQGIAAAGPFDYWCQGTLVTVSS VL: DIRMTQSPSSLSASVGDRVTITCRASQRISTYLNWYQQKPGKAPKFLIYAASSLQSGVPSRFSGSGSGTDFTLTISSLQPEDFATYYCQQSYTTPFTFGPGTKVDIKR .
Response: 23

Query: Recall and state the measured % of binding to human Ang-2 for mAb 5.52.1 (antibody, V domains shown, Human hybridoma IgG (XenoMouse); the line 5.52 has entries of its own (347, 349; light chain L2) that differ from the clone 5.52.1 (L5); also called x5.52) VH: QVQLVESGGGVVQPGRSLRLSCAASGFTFSSYGMHWVRQAPGKGLEWVAVRWYDESNKYYADSVKGRFTISRDNSKNTLYLQMNSLRAEDTAVYYCARDPFETGTTFDYWGQGTLVTVSS VL: DIQMTQSPSSVSASVGDRVTITCRASQGISSWLAWYQQKPGKAPKLLIYAVSSLESGVPSRFSGSGSGTDFTLTISSLQPEDFATYYCQQALTFGGGTKVEIKR .
Response: 100

Query: Recall and state the measured % of binding to human Ang-2 for mAb 3.19.3 (antibody, V domains shown, Human hybridoma IgG (XenoMouse); also called x3.19) VH: QVQLVESGGGVVQPGRSLRLSCAASGFTFTNYGMHWGRQAPGKGLEWVAVISHDGNNKYYVDSVKGRFTISRDNSKNTLYLQMNSLRAEDTAVYYCAREGIDFWSGLNWFDPWGQGTLVTVSS VL: EIVLTQSPGTLSLSPGERATLSCRASQSITGSYLAWYQQKPGQAPRLLICGASSWATGIPDRFSGSGSGTDFTLTISRLEPEDFAVYYCQQYSSSPITFGQGTRLEIKR .
Response: 100

Query: Recall and state the measured % of binding to human Ang-2 for mAb 5.28.1 (antibody, V domains shown, Human hybridoma IgG (XenoMouse); also called x5.28) VH: EVQLVESGGIVVQPGGSLRLSCAASGFTFDDYTMHWVRQTPGKGLEWVSLISWDGGSTYYADSVKGRFTISRDNSKNSLYLQMNSLRTEDTALYYCAKDIDIAVAGTGFDHWGQGTLVTVSS VL: EIVMTQSPATLSVSPGERATLSCRASQSVTSNLAWYQQKPGQAPRLLIYGALIRATGIPARFSGSGSGTEFTLTISSLQSEDFAVYYCQQYNNWPFTFGPGTKVDIKR .
Response: 100
